EXPERIMENT DESCRIPTION: Pharmacokinetic evaluation of QC-199 in mouse plasma and brain, IP or oral
Format: in vivo
TEST CONDITIONS: male, CD-1, mouse, brain, 60 mg/kg; IP or oral administration; above the upper calibration range; read-out: brain tissue concentration at 5 min post-dose
QUANTITY: concentration at 5 min

Query string: So what's the measured concentration at 5 min for this one? Brc1ccc(CCCCn2ccnc2)cc1.Cl [QC-199, hydrochloride]
Result string: > 10000 ng/g

----------
TEST SYSTEM: HO-1 (rat spleen) (Rattus norvegicus)
Construct: Spleen microsomes were used as a source of HO-1; from tissue; host or cells: spleen microsomal fraction of adult male Sprague-Dawley rats
EXPERIMENT DESCRIPTION: HO enzymatic activity in rat spleen microsomal fraction (CO formed from methemalbumin, gas chromatography)
Format: biochemical
TEST CONDITIONS: rat spleen microsomes; average ± standard deviation of replicate experiments
QUANTITY: IC50 HO-1 (rat spleen)/μM

[[record]]
smiles_notation = "Cl.c1cn(CC2OCCO2)cn1"
meas_value = "Inactive"

[[record]]
smiles_notation = "Cc1nccn1CC(=O)CCc1ccc(Cl)cc1.Cl"
meas_value = "INACTIVE"

[[record]]
smiles_notation = "Cl.OC(Cn1ccnc1)Cn1ccnc1"
meas_value = "Inactive"

[[record]]
smiles_notation = "Cc1nccn1CC1(CCc2ccc(Cl)cc2)OCCO1.Cl"
meas_value = "INACTIVE"


----------
TEST SYSTEM: HO-1 (rat spleen) (Rattus norvegicus, UniProt P06762)
Construct: Spleen microsomes were used as a source of HO-1; from tissue; host or cells: spleen microsomal fraction of adult male Sprague-Dawley rats
Sequence (P06762 whole entry): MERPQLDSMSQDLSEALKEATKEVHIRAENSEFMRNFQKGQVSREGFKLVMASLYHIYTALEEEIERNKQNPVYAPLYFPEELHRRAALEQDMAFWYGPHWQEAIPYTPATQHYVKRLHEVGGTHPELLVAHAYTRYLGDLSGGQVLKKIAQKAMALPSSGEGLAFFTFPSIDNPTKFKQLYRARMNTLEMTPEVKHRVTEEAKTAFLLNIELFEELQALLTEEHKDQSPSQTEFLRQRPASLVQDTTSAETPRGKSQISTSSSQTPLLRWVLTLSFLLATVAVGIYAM
EXPERIMENT DESCRIPTION: HO enzymatic activity in rat spleen microsomal fraction (CO formed from methemalbumin, gas chromatography)
Format: biochemical
TEST CONDITIONS: rat spleen microsomes; average ± standard deviation of replicate experiments; read-out: IC50 HO-1 (rat spleen)/μM
Procedure: Incubations for HO activity analysis were done under conditions for which the rate of CO formation (pmol CO×min^−1×mg protein^−1) was linear with respect to time and microsomal protein concentration. […] The values on the abscissa represent the decimal logarithm of the inhibitor's concentration (in μM), whereas the values of the activity on the ordinate are expressed as a percentage of the control experiments without inhibitor. […]
Structures can show the parent of a compound that is named as a salt.
// IC50 lookup, one value per entry
Field format: number, assumed µM, no unit text.

[[record]]
molecule = "c1ccc2c(CCn3ccnc3)c[nH]c2c1 [hydrochloride]"
quantity = "IC50"
meas_value = 40

[[record]]
molecule = "Nc1ccc(SC[C@@H]2CO[C@@](CCc3ccc(Cl)cc3)(Cn3ccnc3)O2)cc1 [hydrochloride]"
quantity = "IC50"
meas_value = 0.33

[[record]]
molecule = "Clc1ccc(CC[C@@]2(Cn3ccnc3)OC[C@@H](CSc3ccc(Cl)cc3)O2)cc1 [hydrochloride]"
quantity = "IC50"
meas_value = 2.8

[[record]]
molecule = "Oc1ccc(SC[C@@H]2CO[C@@](CCc3ccc(Cl)cc3)(Cn3ccnc3)O2)cc1"
quantity = "IC50"
meas_value = 1.59

[[record]]
molecule = "Clc1ccc(CC[C@@]2(Cn3ccnc3)OCC(COc3ccc(-c4ccccc4)cc3)O2)cc1 (stereo in doubt) [hydrochloride]"
quantity = "IC50"
meas_value = 2


Query string: So what's the measured IC50 for this one? Clc1ccc(CC[C@@]2(Cn3ccnc3)OC[C@@H](CSc3ccncc3)O2)cc1 [dihydrochloride]
Result string: 25

Query string: So what's the measured IC50 for this one? Brc1ccc(CCC2(Cn3ccnc3)OCCO2)cc1.Cl [QC-56, hydrochloride]
Result string: 1.9

Value source: patent US20140155445A1
